Test system: human coronavirus HCoV-NL63
RUN DESCRIPTION: Antiviral CPE reduction assay, HCoV-NL63 in Huh-7
Format: cell-based
RECORDED CONDITIONS: Huh-7 cells, 100 CCID50, MTS

MOLECULE	EC50
CCC(CC)COC(=O)[C@H](C)N[P@](=O)(OC[C@H]1O[C@@](C#N)(c2ccc3c(N)ncnn23)[C@H](O)[C@@H]1O)Oc1ccccc1 [Remdesivir, remdesivir, reference compound]	0.03 µM
CC(C)Cn1c(/N=C/c2ccc(N(C)C)cc2)nc2ccc(C#N)cc21 [Compound 29]	79.8 µM
CN(C)c1ccc(/C=N/c2nc3ccccc3n2-c2ccccc2)cc1 [Compound 38]	> 100 µM
CCN(CC)c1ccc(/C=N/c2nc3ccc(C#N)cc3n2-c2ccccc2)c(O)c1 [Compound 41]	> 100 µM
Cn1c(N)nc2ccccc21 [Compound 18, 2-amino-1-methylbenzimidazole]	> 100 µM
CCCCCCn1c(/N=C/c2ccc(N(C)C)cc2)nc2ccccc21 [Compound 42]	> 100 µM
CCN(CC)c1ccc(/C=N/c2nc3ccc(C#N)cc3n2CC(C)C)c(O)c1 [Compound 31]	32 µM
CCN(CC)c1ccc(/C=N/c2nc3ccc(C#N)cc3n2C)c(O)c1 [Compound 36]	> 100 µM
Cn1c(N)nc2ccc(C#N)cc21 [Compound 22, 2-amino-6-cyano-1-methylbenzimidazole]	> 100 µM

###

Tested on: human coronavirus HCoV-229E
RUN DESCRIPTION: organism not typed
Assay type: cell-based
RECORDED CONDITIONS: HEL 299 cells, 100 CCID50, MTS; read-out: Antiviral Activity (EC50/μM) HCoV 229E HEL 299
Items are presented alongside their recorded EC50.
READOUT NAME: EC50

> print(dat)
                              smiles.record  readout.name  obs.value
1   CN(C)c1ccc(/C=N/c2nc3ccc(C#N)cc3n2C)cc1          EC50   > 100 µM
2  CCN(CC)c1ccc(/C=N/c2nc3ccc(C#N)cc3n2-c2ccccc2)c(O)c1          EC50   > 100 µM
3                    Cn1c(N)nc2ccc(C#N)cc21          EC50   > 100 µM

###

Tested on: E. coli efflux del
RUN DESCRIPTION: microbe, parasite or virus in culture
Type: cell-based
RECORDED CONDITIONS: Table 2 prints no unit; μM for compounds; antibiotics tested at 0.125–64 µg/mL
Listed here: items and their measured MIC E. coli efflux del.
READOUT NAME: MIC E. coli efflux del

> print(dat)
                              smiles.record  obs.value
1  CN(C)c1ccc(/C=N/c2nc3ccccc3n2-c2ccccc2)cc1        >64
2  Cn1c(/N=C/c2ccc([N+](=O)[O-])cc2)nc2ccc(C#N)cc21        >64
3  CCN(CC)c1ccc(/C=N/c2nc3ccc(C#N)cc3n2-c2ccccc2)c(O)c1        >64

###

Test system: K-562, chronic myeloid leukemia
RUN DESCRIPTION: Proliferation assay (MTS, 72 h), K-562
Assay type: cell-based, human
RECORDED CONDITIONS: Homo sapiens, K562
READOUT NAME: IC50

COMPOUND	OBS VALUE
CCN(CC)c1ccc(/C=N/c2nc3ccc(C#N)cc3n2CC(C)C)c(O)c1 [Compound 31]	> 100 µM
CN(C)c1ccc(/C=N/c2nc3ccc(C#N)cc3n2C)cc1 [Compound 34]	> 100 µM
CCCCCCn1c(/N=C/c2ccc(N(CC)CC)cc2O)nc2ccc(C#N)cc21 [Compound 45]	> 100 µM
CCCCCCn1c(/N=C/c2ccc(N(C)C)cc2)nc2ccccc21 [Compound 42]	90.8 µM
COC(=O)Nc1nc2ccc(C(=O)c3cccs3)cc2[nH]1 [NZO, nocodazole, reference compound]	0.07 µM
CCN(CC)c1ccc(/C=N/c2nc3ccc(C#N)cc3n2C)c(O)c1 [Compound 36]	> 100 µM
Cn1c(/N=C/c2ccc([N+](=O)[O-])cc2)nc2ccc(C#N)cc21 [Compound 37]	> 100 µM
COc1cc([C@@H]2c3cc4c(cc3[C@@H](O[C@@H]3O[C@@H]5CO[C@@H](C)O[C@H]5[C@H](O)[C@H]3O)[C@H]3COC(=O)[C@H]23)OCO4)cc(OC)c1O [ETP, etoposide, reference compound]	1.77 µM
CCN(CC)c1ccc(/C=N/c2nc3ccc(C#N)cc3n2-c2ccccc2)c(O)c1 [Compound 41]	> 100 µM
CN(C)c1ccc(/C=N/c2nc3ccc(C#N)cc3n2-c2ccccc2)cc1 [Compound 39]	> 100 µM
CC(C)Cn1c(/N=C/c2ccc([N+](=O)[O-])cc2)nc2ccc(C#N)cc21 [Compound 32]	> 100 µM
CC(C)Cn1c(/N=C/c2ccc(N(C)C)cc2)nc2ccccc21 [Compound 28]	> 100 µM
